Target: EGFR TMLRCS (BaF3-TMLRCS cell line) (Homo sapiens, UniProt P00533, C797S/L858R/T790M)
Sequence (P00533 25-1210 T790M/C797S/L858R): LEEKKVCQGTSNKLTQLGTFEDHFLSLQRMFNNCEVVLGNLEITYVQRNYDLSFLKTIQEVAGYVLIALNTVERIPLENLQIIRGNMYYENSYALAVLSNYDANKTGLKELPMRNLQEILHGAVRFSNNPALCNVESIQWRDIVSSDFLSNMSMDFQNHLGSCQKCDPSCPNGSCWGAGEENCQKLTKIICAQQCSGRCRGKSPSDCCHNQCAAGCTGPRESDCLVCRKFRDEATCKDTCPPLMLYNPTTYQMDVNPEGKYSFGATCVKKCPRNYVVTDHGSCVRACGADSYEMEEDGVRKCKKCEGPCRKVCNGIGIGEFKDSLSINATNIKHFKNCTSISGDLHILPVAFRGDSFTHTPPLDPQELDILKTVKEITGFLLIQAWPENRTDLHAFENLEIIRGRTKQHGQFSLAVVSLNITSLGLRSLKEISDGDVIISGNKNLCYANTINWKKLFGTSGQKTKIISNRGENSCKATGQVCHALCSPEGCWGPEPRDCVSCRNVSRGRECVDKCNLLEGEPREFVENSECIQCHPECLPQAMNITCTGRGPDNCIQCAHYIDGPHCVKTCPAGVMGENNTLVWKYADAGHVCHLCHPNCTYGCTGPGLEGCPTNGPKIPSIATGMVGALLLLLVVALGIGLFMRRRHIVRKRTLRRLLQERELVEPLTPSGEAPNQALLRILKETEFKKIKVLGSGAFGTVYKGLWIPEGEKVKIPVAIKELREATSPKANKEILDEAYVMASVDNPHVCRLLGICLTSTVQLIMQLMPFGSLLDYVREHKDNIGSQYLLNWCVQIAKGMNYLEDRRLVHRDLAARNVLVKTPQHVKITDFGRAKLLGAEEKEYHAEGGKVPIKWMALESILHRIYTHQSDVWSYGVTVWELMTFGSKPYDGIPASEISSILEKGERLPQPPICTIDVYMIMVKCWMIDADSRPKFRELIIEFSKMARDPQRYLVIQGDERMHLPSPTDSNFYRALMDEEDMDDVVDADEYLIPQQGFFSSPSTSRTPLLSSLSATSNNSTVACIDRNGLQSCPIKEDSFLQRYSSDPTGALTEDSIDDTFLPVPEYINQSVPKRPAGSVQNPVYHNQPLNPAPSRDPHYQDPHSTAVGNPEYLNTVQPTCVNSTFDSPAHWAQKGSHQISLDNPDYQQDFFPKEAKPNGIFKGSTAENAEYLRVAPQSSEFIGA
Assay: HTRF Phospho EGFR TMLRCS assay (cellular)
Details: BaF3-TMLRCS cells, 4 hours incubation
Experimental: HTRF Phospho EGFR TMLRCS Assay (Cellular) BaF3-TMLRCS cell line were obtained from Crownbio (San Diego, CA, USA). […] Cells are transferred as above to Greiner Bio-One, Nr. […] The lidded plates were then incubated for 4 h at room temperature before reading the fluorescence emission at 616 and 665 nm using an Envision reader (Perkin Elmer). Data was analyzed in similar fashion as above using the normalized ratio of the 665 to 616 signals multiplied by 10000.
Parameter Measured: IC50 (nM)
Value expressed in nM; do not type the unit.

EGFR TMLRCS (BaF3-TMLRCS cell line) (Homo sapiens, UniProt P00533, C797S/L858R/T790M) IC50 of O=C(Nc1nccs1)C(c1ncn2c1CCC2)N1Cc2c(Cl)cc(C#Cc3ccc(CN4CCC(CO)CC4)cc3)cc2C1=O (racemic) is 3
